molecular target: T1, Human 6xHis tagged NKp46 recombinant protein (human, UniProt O76036 22-255, limits assumed); assay: SPR Biacore T100, antibody captured on Protein-G chip, soluble NKp46-His 12.5-200 nM, single cycle kinetics, 1:1 model, monovalent
T1 construct: also called NKp46-His; soluble NKp46-His recombinant proteins; not shown: 6xHis tag
T1 sequence (O76036 22-255 Q82K limits assumed): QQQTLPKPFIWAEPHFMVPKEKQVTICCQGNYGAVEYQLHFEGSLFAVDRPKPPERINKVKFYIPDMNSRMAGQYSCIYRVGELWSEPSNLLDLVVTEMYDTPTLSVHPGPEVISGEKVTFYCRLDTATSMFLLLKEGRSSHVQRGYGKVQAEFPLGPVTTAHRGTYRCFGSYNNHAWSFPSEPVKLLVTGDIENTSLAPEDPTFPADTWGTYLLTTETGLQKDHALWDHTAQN
The entries below are paired with their reported kon.
Return type: number; implicit unit M⁻¹ s⁻¹.

Consider the following illustrative entries.
8B6A (antibody, V domains shown, Mouse variable domains; light chain is kappa (VK); also called CHG1-M-H46 8B6-A) VH: QVQLQQPGSELVRPGASVKLSCKASGYTFTSYWMHWVKQRPGQGLEWIGTIYPGSDITNYDEKFKNKATLTVDTSSSTAYMQLSSLTSEDSAVYYCTRDGRFANWGQGTLVTVSA VL: EIVLTQSPAITAASLGQKVTITCSASSSVSYMHWYQQKSGTSPKPWIYEISKLASGVPARFSGSGSGTSYSLTISSMEAEDAAIYYCQQWNLPLTFGAGTKLELK | 267000
9H11B (antibody, V domains shown, Same heavy chain variable domain as 9H11A with a different light chain; also called CHG1-M-H46 9H11-B) VH: QVQLQQPGAELVKPGASVKLSCKASGYTFTSYWMHWVKLRPGQGFEWIGEIIPSNGVTNYNEKFKRKATLTVDKSSSTAYMQLSSLTSEDSAVYYCTIRLRYALDYWGQGTSVTVSA VL: DIVMTQSQKFMSTSVGDRVSVTCKASQNVGTNVAWYQQKPGQSPKALIYSTSFRYSGVPDRFTGSGSGTDFTLTISNVQSEDLAEYFCQQYNSYPFTFGSGTKLEIK | 283000
9H11A (antibody, V domains shown, also called CHG1-M-H46 9H11-A) VH: QVQLQQPGAELVKPGASVKLSCKASGYTFTSYWMHWVKLRPGQGFEWIGEIIPSNGVTNYNEKFKRKATLTVDKSSSTAYMQLSSLTSEDSAVYYCTIRLRYALDYWGQGTSVTVSA VL: DIQMTQTTSSLSASLGDRVTISCRASQDISNFLNWYQQKPDGTVKLLIYYTSRLHSGVPSRFSGSGSGTDYSLTISNLEQEDIATYFCQQGNTLPPTFGGGTKLEIK | 273000

Consider now this further binder.
Form: binder = 8B6B (antibody, V domains shown, Same heavy chain variable domain as 8B6A with a different light chain; also called CHG1-M-H46 8B6-B) VH: QVQLQQPGSELVRPGASVKLSCKASGYTFTSYWMHWVKQRPGQGLEWIGTIYPGSDITNYDEKFKNKATLTVDTSSSTAYMQLSSLTSEDSAVYYCTRDGRFANWGQGTLVTVSA VL: EIQMTQSPSSLSASLGERVSLTCRASQDIGSSLNWLQQEPDGTIKRLIYATSSLDSGVPKRFSGSRSGSDYSLTISSLESEDFVDYYCLQYASSPYTFGGGTKLEIK ; kon = 271000
